Let's look at some compounds and their measured pIC50.
biological target: Human plasma kallikrein (Homo sapiens (Human)); assay: Kallikrein Assay (fluorogenic substrate Acetyl-K-P-R-AFC); conditions: Plasma Kallikrein (PKal)
pIC50: −log10 of the molar value.

compound	pIC50
CC(c1cnc(N2C[C@H]3C[C@H]3C2=O)c2c1CCC2)n1cc(NC(=O)c2cncc(-c3c(C(F)F)ccc(Cl)c3F)n2)cn1 (single isomer, unassigned) [Example 141]	8.96
CC(c1cnc(N2Cc3cccnc3C2=O)nc1)n1cc(NC(=O)c2cncc(-c3c(C(F)F)ccc(Cl)c3F)n2)cn1 (racemic) [Example 26]	8.21
Cc1ncc(-c2c(C(F)F)ccc(Cl)c2F)nc1C(=O)Nc1cnn(Cc2ccc(N3C[C@H]4C[C@H]4C3=O)nn2)c1 [Example 21]	7.42
Cc1nc(C(C)n2cc(NC(=O)c3nc(-c4c(C(F)F)ccc(Cl)c4F)cnc3C(F)F)cn2)cnc1N1C[C@H]2C[C@H]2C1=O (single isomer, unassigned) [Example 100]	8.77

====

target: Human plasma kallikrein (Homo sapiens (Human), UniProt P03952); assay: Kallikrein Assay (fluorogenic substrate Acetyl-K-P-R-AFC); settings: Plasma Kallikrein (PKal)
Sequence (P03952 391-638): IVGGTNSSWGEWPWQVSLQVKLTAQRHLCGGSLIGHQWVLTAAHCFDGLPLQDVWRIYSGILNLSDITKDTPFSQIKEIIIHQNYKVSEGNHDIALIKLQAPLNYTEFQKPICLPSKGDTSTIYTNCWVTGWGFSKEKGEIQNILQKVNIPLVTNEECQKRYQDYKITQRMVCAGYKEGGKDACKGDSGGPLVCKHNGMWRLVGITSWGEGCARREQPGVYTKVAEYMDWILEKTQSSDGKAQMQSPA
Sequence (P03952 20-390 partner): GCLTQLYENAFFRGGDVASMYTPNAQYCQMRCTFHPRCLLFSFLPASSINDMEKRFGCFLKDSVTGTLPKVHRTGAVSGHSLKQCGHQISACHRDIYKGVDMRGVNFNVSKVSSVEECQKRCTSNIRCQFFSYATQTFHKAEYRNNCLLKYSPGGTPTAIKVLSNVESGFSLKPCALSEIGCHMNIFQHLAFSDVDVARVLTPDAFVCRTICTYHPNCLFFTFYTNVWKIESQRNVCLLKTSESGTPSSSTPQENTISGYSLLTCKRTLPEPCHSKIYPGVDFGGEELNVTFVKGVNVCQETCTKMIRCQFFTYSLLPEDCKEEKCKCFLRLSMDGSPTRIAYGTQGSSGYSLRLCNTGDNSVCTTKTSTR
pIC50: −log10 of the molar value.
Values of pIC50 greater than or equal to 8 map to class 1; values below map to class 0.

compound	assayed_system	assigned_label
CC(c1cnc(N2C[C@H]3C[C@H]3C2=O)c(F)c1)n1cc(NC(=O)c2nc(-c3c(C(F)F)ccc(Cl)c3F)cnc2CO)cn1 (single isomer, unassigned) [Example 206]	Human plasma kallikrein (Homo sapiens (Human), UniProt P03952)	class 1
Cc1nc(Cn2cc(NC(=O)c3cncc(-c4c(C(F)F)ccc(Cl)c4F)n3)cn2)cnc1N1C[C@H]2C[C@H]2C1=O [Example 47]	Human plasma kallikrein (Homo sapiens (Human), UniProt P03952)	class 1
Cc1ncc(-c2c(C(F)F)ccc(Cl)c2F)nc1C(=O)Nc1cnn(Cc2nnc(N3C[C@H]4C[C@H]4C3=O)c(C)c2C)c1 [Example 88]	Human plasma kallikrein (Homo sapiens (Human), UniProt P03952)	class 1
CC(c1cnc(N2C[C@H]3C[C@H]3C2=O)c2c1CCC2)n1cc(NC(=O)c2cncc(-c3c(C(F)F)ccc(Cl)c3F)n2)cn1 (single isomer, unassigned) [Example 142]	Human plasma kallikrein (Homo sapiens (Human), UniProt P03952)	class 1
Cc1cc(C(C)n2cc(NC(=O)c3nc(-c4c(OC(F)F)ccc(Cl)c4F)cnc3COC(C)(C)C)cn2)cnc1N1C[C@H]2C[C@H]2C1=O (mixture of isomers) [Example 228]	Human plasma kallikrein (Homo sapiens (Human), UniProt P03952)	class 1
COc1ncc(-c2c(OC(F)F)ccc(Cl)c2F)nc1C(=O)Nc1cnn(C(C)c2cnc(N3C[C@H]4C[C@H]4C3=O)c(C)n2)c1 (single isomer, unassigned) [Example 241]	Human plasma kallikrein (Homo sapiens (Human), UniProt P03952)	class 1
Cc1cc([C@H](C)n2cc(NC(=O)c3nc(-c4c(OC(F)F)ccc(Cl)c4F)cnc3CO)cn2)cnc1N1C[C@H]2C[C@H]2C1=O [Example 226]	Human plasma kallikrein (Homo sapiens (Human), UniProt P03952)	class 1
Cc1nc(N2C[C@H]3C[C@H]3C2=O)ncc1C1(n2cc(NC(=O)c3nc(-c4c(C(F)F)ccc(Cl)c4F)cnc3C)cn2)CC1 [Example 54]	Human plasma kallikrein (Homo sapiens (Human), UniProt P03952)	class 1
O=C(Nc1cnn(Cc2ccc(N3C[C@H]4C[C@H]4C3=O)cc2)c1)c1cncc(-c2c(C(F)F)ccc(Cl)c2F)n1 [Example 145]	Human plasma kallikrein (Homo sapiens (Human), UniProt P03952)	class 1
Cc1ncc(-c2c(C(F)F)ccc(Cl)c2F)nc1C(=O)Nc1cnn(C(C)c2cnc(N3CCC(O)C3=O)nc2)c1 (single isomer, unassigned) [Example 87]	Human plasma kallikrein (Homo sapiens (Human), UniProt P03952)	class 0
Cc1cc(Cn2cc(NC(=O)c3cncc(-c4c(C(F)F)ccc(Cl)c4F)n3)cn2)ncc1N1C[C@H]2C[C@H]2C1=O [Example 65]	Human plasma kallikrein (Homo sapiens (Human), UniProt P03952)	class 0
COc1cc(Cn2cc(NC(=O)c3cncc(-c4c(C(F)F)ccc(Cl)c4F)n3)cn2)cnc1N1C[C@H]2C[C@H]2C1=O [Example 49]	Human plasma kallikrein (Homo sapiens (Human), UniProt P03952)	class 1

====

molecular target: Human plasma kallikrein (Homo sapiens (Human), UniProt P03952); assay: Kallikrein Assay (fluorogenic substrate Acetyl-K-P-R-AFC); settings: Plasma Kallikrein (PKal)
Let's look at some compounds and their measured IC50.
quantity_measured: IC50 (nM)

compound	endpoint_result
Cc1nc([C@@H](C)n2cc(NC(=O)c3nc(-c4c(C(F)F)ccc(Cl)c4F)cnc3C)cn2)ncc1N1C[C@H]2C[C@H]2C1=O [Example 2]	11.9
CC(c1ccc(N2CC3CC3C2=O)nc1)n1cc(NC(=O)c2cncc(-c3c(C(F)F)ccc(Cl)c3F)n2)cn1 (single isomer, unassigned) [Example 10]	16.8
Cc1ncc(-c2c(C(F)F)ccc(Cl)c2F)nc1C(=O)Nc1cnn(C2(c3cnc(N4C[C@H]5C[C@H]5C4=O)c(C)n3)CC2)c1 [Example 220]	7.8
Cc1ncc(-c2c(C(F)F)ccc(Cl)c2F)nc1C(=O)Nc1cnn(C(C)c2cnc(N3C[C@H]4C[C@H]4C3=O)c(F)c2C)c1 (single isomer, unassigned) [Example 127]	0.5

====

biological target: human Factor XIa (Homo sapiens (Human))
Sequence (P03951 388-625 limits assumed): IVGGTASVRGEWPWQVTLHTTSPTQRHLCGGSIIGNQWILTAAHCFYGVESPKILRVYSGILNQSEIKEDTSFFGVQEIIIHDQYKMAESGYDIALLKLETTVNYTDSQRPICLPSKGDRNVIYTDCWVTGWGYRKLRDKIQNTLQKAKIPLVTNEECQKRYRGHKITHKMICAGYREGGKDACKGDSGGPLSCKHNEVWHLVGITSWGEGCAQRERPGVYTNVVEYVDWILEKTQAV
Sequence (P03951 19-387 partner limits assumed): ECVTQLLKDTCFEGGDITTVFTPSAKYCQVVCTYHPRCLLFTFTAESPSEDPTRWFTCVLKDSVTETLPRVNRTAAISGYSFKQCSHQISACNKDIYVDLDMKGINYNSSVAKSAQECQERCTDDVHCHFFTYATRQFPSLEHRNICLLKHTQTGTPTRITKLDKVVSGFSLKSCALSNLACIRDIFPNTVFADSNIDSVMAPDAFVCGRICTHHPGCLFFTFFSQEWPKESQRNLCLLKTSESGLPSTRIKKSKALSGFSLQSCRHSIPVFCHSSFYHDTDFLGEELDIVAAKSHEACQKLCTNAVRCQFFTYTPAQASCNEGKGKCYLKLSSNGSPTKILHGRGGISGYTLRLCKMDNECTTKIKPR

compound	bound_operator	IC50, nM
Cc1c(N2C[C@H]3C[C@H]3C2=O)cnc(C(C)n2cc(NC(=O)c3cncc(-c4c(C(F)F)ccc(Cl)c4F)n3)cn2)c1N (single isomer, unassigned)	>	10000
Cc1cc(N2C[C@H]3C[C@H]3C2=O)ccc1C(C)n1cc(NC(=O)c2nc(-c3c(C(F)F)ccc(Cl)c3F)cnc2C)cn1 (single isomer, unassigned)	>	10000
Cc1nc(C2(n3cc(NC(=O)c4nc(-c5c(C(F)F)ccc(Cl)c5F)cnc4CO)cn3)CC2)cnc1N1C[C@H]2C[C@H]2C1=O	=	1840
Cc1ncc(-c2c(C(F)F)ccc(Cl)c2F)nc1C(=O)Nc1cnn(C(C)c2cnc(N3C[C@H]4C[C@H]4C3=O)c(C)n2)c1 (single isomer, unassigned)	=	992
Cc1nc(C(C)n2cc(NC(=O)c3nc(-c4c(C(F)F)ccc(Cl)c4F)cnc3C(F)F)cn2)cnc1N1C[C@H]2C[C@H]2C1=O (single isomer, unassigned) [Example 101]	=	3950
Cc1nc(N2C[C@H]3C[C@H]3C2=O)ncc1C(C)n1cc(NC(=O)c2nc(-c3c(C(F)F)ccc(Cl)c3F)cc(=O)n2C)cn1 (single isomer, unassigned)	=	57
Cc1nc(N2C[C@H]3C[C@H]3C2=O)ncc1Cn1cc(NC(=O)c2nc(-c3c(C(F)F)ccc(Cl)c3F)cc(=O)n2C)cn1	=	94

====

biological target: Human plasma kallikrein (Homo sapiens (Human)); experiment: Kallikrein Assay (fluorogenic substrate Acetyl-K-P-R-AFC); conditions: Plasma Kallikrein (PKal)
Let's look at some compounds and their measured IC50.

compound	IC50, nM
Cc1nc(N2C[C@H]3C[C@H]3C2=O)ncc1Cn1cc(NC(=O)c2nc(-c3c(C(F)F)ccc(Cl)c3F)cnc2CO)cn1	0.9
Cc1cc(C(C)n2cc(NC(=O)c3nc(-c4c(C(F)F)ccc(Cl)c4F)cnc3C(C)O)cn2)cnc1N1C[C@H]2C[C@H]2C1=O (single isomer, unassigned) [Example 211]	0.6
CC(c1cnc(N2C[C@H]3C[C@H]3C2=O)c(F)c1)n1cc(NC(=O)c2nc(-c3c(C(F)F)ccc(Cl)c3F)cnc2COC(C)(C)C)cn1 (single isomer, unassigned) [Example 143]	4.9
Cc1cc(C(C)n2cc(NC(=O)c3nc(-c4c(C(F)F)ccc(Cl)c4F)cnc3C(C)O)cn2)nnc1N1C[C@H]2C[C@H]2C1=O (single isomer, unassigned) [Example 232]	1.8

====

molecular target: Human plasma kallikrein (Homo sapiens (Human), UniProt P03952); experiment: Kallikrein Assay (fluorogenic substrate Acetyl-K-P-R-AFC); details: Plasma Kallikrein (PKal)
pIC50: −log10 of the molar value.
Values of pIC50 greater than or equal to 8 map to true; values below map to false.

compound	assayed_system	assigned_label
O=C(Nc1cnn(Cc2cnc(N3C[C@H]4C[C@H]4C3=O)nc2)c1)c1cncc(-c2c(C(F)F)ccc(Cl)c2F)n1	Human plasma kallikrein (Homo sapiens (Human), UniProt P03952)	false
Cc1cc(C(C)n2cc(NC(=O)c3cncc(-c4c(OC(F)F)ccc(Cl)c4F)n3)cn2)nnc1N1C[C@H]2C[C@H]2C1=O (single isomer, unassigned) [Example 115]	Human plasma kallikrein (Homo sapiens (Human), UniProt P03952)	true
Cc1cc(C(C)n2cc(NC(=O)c3nc(-c4c(C#N)ccc(Cl)c4F)cnc3C)cn2)nnc1N1C[C@H]2C[C@H]2C1=O (single isomer, unassigned) [Example 237]	Human plasma kallikrein (Homo sapiens (Human), UniProt P03952)	true
Cc1cc([C@H](C)n2cc(NC(=O)c3cncc(-c4c(C(F)F)ccc(Cl)c4F)n3)cn2)nnc1N1C[C@H]2C[C@H]2C1=O	Human plasma kallikrein (Homo sapiens (Human), UniProt P03952)	true
Cc1cc(C(C)n2cc(NC(=O)c3nc(-c4c(C#N)ccc(Cl)c4F)cnc3C)cn2)nnc1N1C[C@H]2C[C@H]2C1=O (single isomer, unassigned) [Example 236]	Human plasma kallikrein (Homo sapiens (Human), UniProt P03952)	true
